Below is a list of entries, each paired with its recorded Molt4 IC50 value.
- target.of.assay: T1, human CD98, endogenously expressed on Molt-4 human acute lymphoblastic leukemia cells (human)
- T1 chain: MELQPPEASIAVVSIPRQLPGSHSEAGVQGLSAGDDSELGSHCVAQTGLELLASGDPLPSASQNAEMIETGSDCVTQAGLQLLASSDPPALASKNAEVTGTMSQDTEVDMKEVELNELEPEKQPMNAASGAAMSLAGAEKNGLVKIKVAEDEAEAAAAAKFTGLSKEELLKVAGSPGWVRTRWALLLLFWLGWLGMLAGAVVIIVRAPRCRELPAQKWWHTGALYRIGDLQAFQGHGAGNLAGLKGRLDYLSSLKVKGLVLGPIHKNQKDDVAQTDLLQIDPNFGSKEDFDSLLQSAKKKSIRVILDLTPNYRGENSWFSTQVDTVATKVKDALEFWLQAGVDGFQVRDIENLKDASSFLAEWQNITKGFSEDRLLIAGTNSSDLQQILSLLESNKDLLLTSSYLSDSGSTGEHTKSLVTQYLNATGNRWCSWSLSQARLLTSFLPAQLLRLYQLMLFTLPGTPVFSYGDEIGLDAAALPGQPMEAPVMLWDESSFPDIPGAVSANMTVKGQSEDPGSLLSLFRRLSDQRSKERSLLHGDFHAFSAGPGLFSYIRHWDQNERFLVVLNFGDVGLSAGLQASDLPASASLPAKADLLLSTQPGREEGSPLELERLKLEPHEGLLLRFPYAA
- experimental.protocol: cell-based or functional assay
Give just the number in nM; leave the unit off.

// known answers, use as guide
| binder | unit.spec | measurement |
| --- | --- | --- |
| CD98 (CL-huAb102)-WD (antibody, human IgG1, kappa, L234A L235A, V domains shown, synthon WD on reduced interchain cysteines (sites not given)) VH: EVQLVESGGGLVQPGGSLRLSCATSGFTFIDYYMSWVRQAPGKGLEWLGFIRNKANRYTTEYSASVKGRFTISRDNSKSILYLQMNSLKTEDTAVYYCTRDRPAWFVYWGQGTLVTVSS VL: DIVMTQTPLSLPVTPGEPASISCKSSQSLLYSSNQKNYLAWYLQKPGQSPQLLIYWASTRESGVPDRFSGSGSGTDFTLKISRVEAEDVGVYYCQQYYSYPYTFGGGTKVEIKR | nM | 0.109 |
| CD98 (CL-huAb102)-YY (antibody, human IgG1, kappa, L234A L235A, V domains shown, synthon YY on reduced interchain cysteines (sites not given)) VH: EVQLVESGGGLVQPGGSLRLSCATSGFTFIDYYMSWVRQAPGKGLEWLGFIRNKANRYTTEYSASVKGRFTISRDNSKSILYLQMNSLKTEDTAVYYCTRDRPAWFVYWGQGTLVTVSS VL: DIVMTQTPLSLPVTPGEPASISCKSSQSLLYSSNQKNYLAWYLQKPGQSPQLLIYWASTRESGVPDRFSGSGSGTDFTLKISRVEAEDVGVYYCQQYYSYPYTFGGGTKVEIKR | nM | 0.05 |

-- ask Using the record for CD98 (CL-huAb104)-AAA (antibody, human IgG1, kappa, L234A L235A, V domains shown, synthon AAA on reduced interchain cysteines (sites not given)) VH: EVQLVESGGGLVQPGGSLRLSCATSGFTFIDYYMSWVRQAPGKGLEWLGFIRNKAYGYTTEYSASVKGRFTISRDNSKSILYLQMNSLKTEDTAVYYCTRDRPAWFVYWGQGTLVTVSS VL: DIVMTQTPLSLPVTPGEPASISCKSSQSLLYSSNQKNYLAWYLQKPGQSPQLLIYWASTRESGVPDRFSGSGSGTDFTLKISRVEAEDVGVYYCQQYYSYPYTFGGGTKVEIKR , report its Molt4 IC50.
-- reply 0.04
